# experiment notes: Cytotoxicity against human SNU638 cells by SRB assay
# Format: functional, cell-based
# measurement setup: SNU-638
reported endpoint: pIC50
Give bare numbers, as −log10 of the molar value.

Illustrative cases are given below, each with its answer.
                                   molecule  reported_endpoint  number
0  Nc1ccn(C2[Se][C@H](CO)[C@@H](O)[C@@H]2F)c(=O)n1 (stereo not given in full)              pIC50    6.85
1  Nc1ccn(C2[Se][C@H](CO)[C@@H](O)[C@@H]2O)c(=O)n1 (stereo not given in full)              pIC50    5.33

Continue with the molecule presented below.
Looking up Nc1ccn([C@@H]2O[C@H](CO)[C@@H](O)[C@@H]2O)c(=O)n1 [CYTARABINE] , I see its pIC50 listed as 6.82

* * *

# experiment notes: Cytotoxicity against human SNU638 cells by SRB assay
# Format: functional, cell-based
# measurement setup: SNU-638
reported endpoint: IC50

>>> print(df.to_string())
                                   compound  reported_endpoint    result
0  [N-]=[N+]=N[C@@H]1C(n2cc(Cl)c(=O)[nH]c2=O)[Se][C@H](CO)[C@H]1O (stereo partly drawn)               IC50  > 100 µM
1  Cc1cn(C2[Se][C@H](CO)[C@@H](O)[C@@H]2N=[N+]=[N-])c(=O)[nH]c1=O (single isomer, unassigned; (+))               IC50  > 100 µM
2  O=c1[nH]c(=O)n(C2[Se][C@H](CO)[C@@H](O)[C@@H]2F)cc1F (stereo partly drawn)               IC50   50.1 µM
3  [N-]=[N+]=N[C@@H]1C(n2ccc(=O)[nH]c2=O)[Se][C@H](CO)[C@H]1O (stereo partly drawn)               IC50  > 100 µM
4  O=c1[nH]c(=O)n(C2[Se][C@H](CO)[C@@H](O)[C@@H]2F)cc1Br (stereo partly drawn)               IC50  > 100 µM

Give IC50 for each listed item.
1. O=c1[nH]c(=O)n(C2[Se][C@H](CO)[C@@H](O)[C@@H]2O)cc1I (stereo partly drawn)
2. O=c1ccn(C2[Se][C@H](CO)[C@@H](O)[C@@H]2F)c(=O)[nH]1 (single isomer, unassigned; (-))
3. O=c1[nH]c(=O)n(C2[Se][C@H](CO)[C@@H](O)[C@@H]2F)cc1Cl (single isomer, unassigned; (+))

A.
1. > 100 µM
2. > 100 µM
3. 76.3 µM

* * *

# System: K562
# experiment notes: Cytotoxicity against human K562 cells by SRB assay
# Type: functional, cell-based
pIC50: −log10 of the molar value.
Record form. Attribute: pIC50. Fill in for each entry.

>>> print(df.to_string())
                                   molecule  reported_endpoint  result
0  Cc1cn(C2[Se][C@H](CO)[C@@H](O)[C@@H]2F)c(=O)[nH]c1=O (stereo partly specified)              pIC50    4.12

Give pIC50 for each listed item.
1. O=c1[nH]c(=O)n(C2[Se][C@H](CO)[C@@H](O)[C@@H]2O)cc1F (stereo partly specified)
2. O=c1[nH]c(=O)n(C2[Se][C@H](CO)[C@@H](O)[C@@H]2F)cc1Cl (single isomer, unassigned; (+))
3. Cc1cn(C2[Se][C@H](CO)[C@@H](O)[C@@H]2O)c(=O)[nH]c1=O (stereo partly specified)
4. Nc1ccn(C2[Se][C@H](CO)[C@@H](O)[C@@H]2O)c(=O)n1 (stereo partly specified)
5. [N-]=[N+]=N[C@@H]1C(n2cc(Br)c(=O)[nH]c2=O)[Se][C@H](CO)[C@H]1O (single isomer, unassigned; (-))
6. [N-]=[N+]=N[C@@H]1C(n2cc(I)c(=O)[nH]c2=O)[Se][C@H](CO)[C@H]1O (stereo partly specified)
7. Nc1ccn(C2[Se][C@H](CO)[C@@H](O)[C@@H]2F)c(=O)n1 (stereo partly specified)

A.
1: < 4.00; 2: < 4.00; 3: < 4.00; 4: 4.06; 5: < 4.00; 6: < 4.00; 7: 6.20

Give pIC50 for each listed item.
1. O=c1[nH]c(=O)n(C2[Se][C@H](CO)[C@@H](O)[C@@H]2F)cc1I (stereo partly specified)
2. O=c1[nH]c(=O)n(C2[Se][C@H](CO)[C@@H](O)[C@@H]2O)cc1Br (stereo partly specified)
3. O=c1ccn(C2[Se][C@H](CO)[C@@H](O)[C@@H]2F)c(=O)[nH]1 (single isomer, unassigned; (-))
4. Cc1cn(C2[Se][C@H](CO)[C@@H](O)[C@@H]2N=[N+]=[N-])c(=O)[nH]c1=O (single isomer, unassigned; (+))
5. [N-]=[N+]=N[C@@H]1C(n2ccc(=O)[nH]c2=O)[Se][C@H](CO)[C@H]1O (stereo partly specified)

A.
1: < 4.00; 2: < 4.00; 3: < 4.00; 4: < 4.00; 5: < 4.00

Give pIC50 for each listed item.
1. [N-]=[N+]=N[C@@H]1C(n2cc(F)c(=O)[nH]c2=O)[Se][C@H](CO)[C@H]1O (single isomer, unassigned; (+))
2. O=c1[nH]c(=O)n(C2[Se][C@H](CO)[C@@H](O)[C@@H]2F)cc1Br (stereo partly specified)
3. [N-]=[N+]=N[C@@H]1C(n2cc(Cl)c(=O)[nH]c2=O)[Se][C@H](CO)[C@H]1O (stereo partly specified)
4. O=c1[nH]c(=O)n(C2[Se][C@H](CO)[C@@H](O)[C@@H]2O)cc1I (stereo partly specified)
5. O=c1ccn(C2[Se][C@H](CO)[C@@H](O)[C@@H]2O)c(=O)[nH]1 (stereo partly specified)
6. [N-]=[N+]=N[C@@H]1C(n2ccc(N)nc2=O)[Se][C@H](CO)[C@H]1O (single isomer, unassigned; (+))

A.
1: < 4.00; 2: < 4.00; 3: < 4.00; 4: < 4.00; 5: < 4.00; 6: 4.21

Give pIC50 for each listed item.
1. O=c1[nH]c(=O)n(C2[Se][C@H](CO)[C@@H](O)[C@@H]2O)cc1Cl (stereo partly specified)
2. O=c1[nH]c(=O)n(C2[Se][C@H](CO)[C@@H](O)[C@@H]2F)cc1F (stereo partly specified)

A.
1: < 4.00; 2: 4.11
